# Tested on: barnyardgrass (Echinochloa crus-galli)
# testDetails: Test A pre/postemergence
# Assay type: in vivo
# testConditions: Echinochloa crus-galli, pre-emergence, 240 h, Preemergence, 500 g ai/ha; 0 to 100 scale where 0 is no effect and 100 is complete control; approximately ten days; read-out: Plant response rating, Barnyardgrass
endpointLabel: pest or weed control at 500 g/ha (%)
Dear colleague, please return just the value in %, with no unit written.

Field: example entries. Status: answers known.
molecule: NC(=O)c1nc(C2CC2)nc(N)c1Br [Compound 20]
targetUnderTest: barnyardgrass (Echinochloa crus-galli)
valueUnit: %
pest or weed control at 500 g/ha: 0

molecule: CNC(=O)c1nc(C2CC2)nc(N)c1Cl [Compound 81]
targetUnderTest: barnyardgrass (Echinochloa crus-galli)
valueUnit: %
pest or weed control at 500 g/ha: 20

molecule: CNc1nc(C2CC2)nc(C(=O)OC)c1Cl [Compound 79]
targetUnderTest: barnyardgrass (Echinochloa crus-galli)
valueUnit: %
pest or weed control at 500 g/ha: 80

molecule: COC(=O)c1nc(-c2ccc(Cl)cc2)nc(N)c1Cl [Compound 58]
targetUnderTest: barnyardgrass (Echinochloa crus-galli)
valueUnit: %
pest or weed control at 500 g/ha: 0

Alright, here's another molecule for you.
API: value(readout=pest or weed control at 500 g/ha, system=barnyardgrass (Echinochloa crus-galli)) for record CCOC(=O)c1nc(-c2ccc(Br)cc2)nc(N)c1Cl [Compound 94]
40

* * *

Each item that follows carries a reported Morningglory plant response rating.
# System: morningglory (Ipomoea coccinea)
# testDetails: Test B pre/postemergence
# Assay type: in vivo
# testConditions: Preemergence, 500 g ai/ha; scale 0 to 100 (0 no effect, 100 complete control)
No unit in the answer, only the number.

compound: CCCCOC(=O)c1nc(C2CC2)nc(N)c1Br
endpointLabel: Morningglory plant response rating
valueMeasured: 100
--
compound: COC(=O)c1nc(C2CC2)nc(N=CN(C)C)c1Br
endpointLabel: Morningglory plant response rating
valueMeasured: 100
--
compound: CON=Cc1nc(C2CC2)nc(N)c1Br
endpointLabel: Morningglory plant response rating
valueMeasured: 30
--
compound: CCOC(=O)c1nc(C2CC2)nc(NCCN(C)C)c1Br
endpointLabel: Morningglory plant response rating
valueMeasured: 50
--
compound: CCOC(=O)c1nc(C2CC2)nc(N=CN(C)C)c1Br
endpointLabel: Morningglory plant response rating
valueMeasured: 100
--
compound: CCCOC(=O)c1nc(C2CC2)nc(N)c1Br
endpointLabel: Morningglory plant response rating
valueMeasured: 100
--
compound: CNN=Cc1nc(C2CC2)nc(N)c1Br
endpointLabel: Morningglory plant response rating
valueMeasured: 100

Using the record for CCOC(=O)C(Cl)c1nc(C2CC2)nc(N)c1Br (centres unmarked) , report its Morningglory plant response rating.
100

* * *

Quick list: Plant response rating, Crabgrass per entry.
# Tested on: crabgrass (Digitaria sanguinalis)
# testDetails: Test B pre/postemergence
# Assay type: in vivo
# testConditions: Preemergence, 125 g ai/ha; scale 0 to 100 (0 no effect, 100 complete control)
Provide a numeric answer; units are not to be included.

Consider the following illustrative entries.
molecule: CCOC(=O)Cc1nc(C2CC2)nc(N)c1Br
targetUnderTest: crabgrass (Digitaria sanguinalis)
Plant response rating, Crabgrass: 20
--
molecule: CCOC(=O)c1nc(C2CC2)nc(NCCOC)c1Br
targetUnderTest: crabgrass (Digitaria sanguinalis)
Plant response rating, Crabgrass: 0
--
molecule: Nc1nc(C2CC2)nc(C(=O)[O-])c1Br.[Na+]
targetUnderTest: crabgrass (Digitaria sanguinalis)
Plant response rating, Crabgrass: 70

# get_value(readout= Plant response rating, Crabgrass, system= crabgrass (Digitaria sanguinalis)) for "CC(C)COC(=O)c1nc(C2CC2)nc(N)c1Br"
70

API: value(readout=Plant response rating, Crabgrass, system=crabgrass (Digitaria sanguinalis)) for record COC(=O)c1nc(C2CC2C)nc(N)c1Br (stereo not drawn)
70

Under crabgrass (Digitaria sanguinalis): Plant response rating, Crabgrass value of "Nc1nc(C2CC2)nc(C(=O)O)c1Cl" ?
90

* * *

# System: cocklebur (Xanthium strumarium)
# testDetails: Test C pre/postemergence
# Assay type: in vivo
# testConditions: Preemergence, 62 g ai/ha; scale 0 to 100, 0 no effect, 100 complete control
# Excerpt: […]
endpointLabel: Plant response rating, Cocklebur
Output spec: single numeric token, no unit.

compound: CCOC(=O)C(Cl)c1nc(C2CC2)nc(N)c1Br (centres unmarked) [Compound 31]
targetUnderTest: cocklebur (Xanthium strumarium)
Plant response rating, Cocklebur: 60
//
compound: COC(=O)c1nc(C2CC2)nc(N=CN(C)C)c1Br [Compound 19]
targetUnderTest: cocklebur (Xanthium strumarium)
Plant response rating, Cocklebur: 65
//
compound: CCCCOC(=O)c1nc(C2CC2)nc(N)c1Br [Compound 16]
targetUnderTest: cocklebur (Xanthium strumarium)
Plant response rating, Cocklebur: 95
//
compound: CCCOC(=O)c1nc(C2CC2)nc(N)c1Br [Compound 15]
targetUnderTest: cocklebur (Xanthium strumarium)
Plant response rating, Cocklebur: 65
//
compound: CN(C)N=Cc1nc(C2CC2)nc(N)c1Br [Compound 50]
targetUnderTest: cocklebur (Xanthium strumarium)
Plant response rating, Cocklebur: 70

Quick one: Plant response rating, Cocklebur for CCOC(=O)Cc1nc(C2CC2)nc(N)c1Br [Compound 12] ?
50

Find the recorded Plant response rating, Cocklebur belonging to CC(C)COC(=O)c1nc(C2CC2)nc(N)c1Br [Compound 17] and report it.
90

Given the entry CCOC(=O)C(OC(C)=O)c1nc(C2CC2)nc(N)c1Br (centres unmarked) [Compound 47] , report its measured Plant response rating, Cocklebur.
70

* * *

Listed next: entries and their corresponding Cupgrass, Woolly plant response rating.
# System: woolly cupgrass (Eriochloa villosa)
# testDetails: Test C pre/postemergence
# Type: in vivo
# testConditions: Postemergence, 125 g ai/ha; scale 0 to 100 (0 no effect, 100 complete control)
# Source text: […]
I only need the number, thanks.

Record excerpt, results attached:
compound: Nc1nc(-c2ccc(Cl)cc2)nc(C(=O)[O-])c1Cl.[Na+] [Compound 117]
endpointLabel: Cupgrass, Woolly plant response rating
valueMeasured: 85
--
compound: CCCCOC(=O)c1nc(C2CC2)nc(N)c1Cl [Compound 76]
endpointLabel: Cupgrass, Woolly plant response rating
valueMeasured: 95
--
compound: CCCCOC(=O)c1nc(C2CC2)nc(N)c1Br [Compound 16]
endpointLabel: Cupgrass, Woolly plant response rating
valueMeasured: 0
--
compound: CC(=O)NN=Cc1nc(C2CC2)nc(N)c1Br [Compound 51]
endpointLabel: Cupgrass, Woolly plant response rating
valueMeasured: 0
--
compound: CCOC(=O)c1nc(-c2ccc(Cl)cc2)nc(N)c1Br [Compound 37]
endpointLabel: Cupgrass, Woolly plant response rating
valueMeasured: 0

Which Cupgrass, Woolly plant response rating is reported for this compound? CCOC(=O)c1nc(-c2ccc(I)cc2)nc(N)c1Cl [Compound 133]
70

Need Cupgrass, Woolly plant response rating, item COC(=O)CNc1nc(C2CC2)nc(C(=O)OC)c1Br [Compound 10]
0

Any idea what Cupgrass, Woolly plant response rating was measured for CCCOC(=O)c1nc(C2CC2)nc(N)c1Br [Compound 15] ?
50

* * *

Plant response rating, Barnyardgrass values for the compounds below.
# Test system: barnyardgrass (Echinochloa crus-galli)
# testDetails: Test A pre/postemergence
# Format: in vivo
# testConditions: Preemergence, 125 g ai/ha; 0 to 100 scale where 0 is no effect and 100 is complete control; approximately ten days
Form field (numeric): enter value without unit.

Look over these answered cases.
compound: COC(OC)c1nc(-c2ccc(I)cc2)nc(N)c1Cl
endpointLabel: Plant response rating, Barnyardgrass
valueMeasured: 0

compound: Nc1nc(C2CC2)nc(C(=O)OCC2CCCO2)c1Cl (stereo not drawn)
endpointLabel: Plant response rating, Barnyardgrass
valueMeasured: 65

compound: Cc1ccc(-c2nc(N)c(Cl)c(C(=O)O)n2)cc1F
endpointLabel: Plant response rating, Barnyardgrass
valueMeasured: 0

compound: CCOC(=O)COc1nc(C2CC2)nc(N)c1Cl
endpointLabel: Plant response rating, Barnyardgrass
valueMeasured: 0

compound: Nc1nc(C2CC2)nc(C(=O)OCCCOC(=O)c2nc(C3CC3)nc(N)c2Cl)c1Cl
endpointLabel: Plant response rating, Barnyardgrass
valueMeasured: 50

For barnyardgrass (Echinochloa crus-galli), provide Plant response rating, Barnyardgrass of "CCOC(=O)c1nc(-c2ccc(Cl)c(Cl)c2)nc(N)c1Br" please.
0

* * *

# Test system: corn (Zea mays)
# testDetails: Test B pre/postemergence
# Assay type: in vivo
# testConditions: Zea mays, post-emergence, Postemergence, 62 g ai/ha; scale 0 to 100 (0 no effect, 100 complete control); read-out: Corn plant response rating
endpointLabel: plant injury at 62 g/ha (%)
Supply the numeric figure in %, leaving out any unit text.

Reference set (3 entries):
molecule: Nc1nc(-c2ccc(Br)cc2)nc(C(=O)O)c1Cl
plant injury at 62 g/ha / %: 80
//
molecule: Nc1nc(-c2ccc(Cl)cc2)nc(C(=O)O)c1Cl
plant injury at 62 g/ha / %: 80
//
molecule: Nc1nc(C2CC2)nc(C(=O)[O-])c1Cl.[Na+] [Compound 77, monosodium salt]
plant injury at 62 g/ha / %: 30

Proceeding to the next molecule to report its plant injury at 62 g/ha.
Entry under review: Nc1nc(C2CC2)nc(C(=O)[O-])c1Br.[Na+] [Compound 113, monosodium salt] . Reported plant injury at 62 g/ha?
10
